Tested on: BV-173 (Chronic Myelogenous Leukemia)
Assay: combination Emax (second highest fraction inhibited in the dose matrix, 72 h); higher = more inhibition; extreme values may be limits of the assay
Label 1 (yes) when combination Emax is at or above 0.5; otherwise label 0 (no).

INPUT: Quick check: does Cn1cnc2c(F)c(Nc3ccc(Br)cc3Cl)c(C(=O)NOCCO)cc21 [Selumetinib] + CCN(CCO)CCCOc1ccc2c(Nc3cc(CC(=O)Nc4cccc(F)c4)[nH]n3)ncnc2c1 [AZD2811] (first compound max 10 µM, 7x7, partner max 1 µM) have combination Emax greater than or equal to 0.5?
OUTPUT: 1 (yes)

INPUT: Quick check: does COc1cc2ncnc(Nc3ccc(F)c(Cl)c3)c2cc1OCCCN1CCOCC1 [Gefitinib] + CC(C)n1c(=O)n(C)c2cnc3cc(F)c(-c4ccc(OCCCN5CCCCC5)nc4)cc3c21 [AZD1390] (first compound max 10 µM, 7x7, partner max 0.3 µM) have combination Emax greater than or equal to 0.5?
OUTPUT: 0 (no)

INPUT: Quick check: does Cc1cc2ncnn2cc1Nc1ncc2c(n1)n(C1CCOCC1)c(=O)n2C [AZD7648] + C=CCn1c(=O)c2cnc(Nc3ccc(N4CCN(C)CC4)cc3)nc2n1-c1cccc(C(C)(C)O)n1 [AZD1775] (first compound max 10 µM, partner max 1 µM) have combination Emax greater than or equal to 0.5?
OUTPUT: 1 (yes)

INPUT: Quick check: does Cc1cc2ncnn2cc1Nc1ncc2c(n1)n(C1CCOCC1)c(=O)n2C [AZD7648] + C[C@@H]1COCCN1C2=NC(=NC(=C2)C3(CC3)[S@](=N)(=O)C)C4=C5C=CNC5=NC=C4 [AZD6738] (first compound max 10 µM, 7x7, partner max 10 µM) have combination Emax greater than or equal to 0.5?
OUTPUT: 1 (yes)
